TEST_METHOD_NOTES: RP, Thermo Scientific Hypersil GOLD, 1.9 µm, 40 °C, 0.4 mL/min; A: water + 0.1% formic acid, pH 3; B: acetonitrile + 0.1% formic acid, pH 3; gradient (min/%B) 0/0 1/0 11/100 13/100 14/0 16/0
DETAILS: stereoisomer not certain

{"COMPOUND": "O=C(O)c1cncc(O)c1 [5-Hydroxynicotinic acid]", "LC retention time / min": 0.83}
{"COMPOUND": "CN(CC(=O)O)C(=N)N [CREATINE]", "LC retention time / min": 0.66}
{"COMPOUND": "CC(CCC(=O)O)C1CCC2C3C(O)CC4CC(O)CCC4(C)C3CCC12C (configuration not stated) [CHENODEOXYCHOLATE]", "LC retention time / min": 9.15}
{"COMPOUND": "Nc1nc2nc[nH]c2c(=O)[nH]1 [GUANINE]", "LC retention time / min": 0.78}
{"COMPOUND": "O=C(O)C(O)Cc1ccc(O)cc1 (configuration not stated) [HYDROXYPHENYLLACTATE]", "LC retention time / min": 4.38}
{"COMPOUND": "CCC(NC(=O)CCC(N)C(=O)O)C(=O)NCC(=O)O (configuration not stated) [OPHTHALMATE]", "LC retention time / min": 0.83}
{"COMPOUND": "CC1NCCc2cc(O)c(O)cc21 (configuration not stated) [SALSOLINOL]", "LC retention time / min": 0.82}

###

TEST_METHOD_NOTES: RP, Thermo Scientific Hypersil GOLD, 1.9 µm, 40 °C, 0.4 mL/min; A: water + 0.1% formic acid, pH 3; B: acetonitrile + 0.1% formic acid, pH 3; gradient (min/%B) 0/0 1/0 11/100 13/100 14/0 16/0
DETAILS: stereoisomer not certain

{"MOLECULE": "CCCCCCSCC(NC(=O)CCC(N)C(=O)O)C(=O)NCC(=O)O (stereo not drawn) [S-HEXYL-GLUTATHIONE]", "UNIT_SYMBOL": "min", "LC retention time": 6.32}
{"MOLECULE": "NCCCNCCCN [NORSPERMIDINE]", "UNIT_SYMBOL": "min", "LC retention time": 0.49}
{"MOLECULE": "Cn1c(=O)c2c(ncn2C)n(C)c1=O [CAFFEINE]", "UNIT_SYMBOL": "min", "LC retention time": 4.85}

###

TEST_METHOD_NOTES: RP, Thermo Scientific Hypersil GOLD, 1.9 µm, 40 °C, 0.4 mL/min; A: water + 0.1% formic acid, pH 3; B: acetonitrile + 0.1% formic acid, pH 3; gradient (min/%B) 0/0 1/0 11/100 13/100 14/0 16/0
DETAILS: stereoisomer not certain
Counter-ions that a name gives are not always drawn.
Reported LC retention time values for a set of compounds

{"COMPOUND": "O=C(O)CC(=O)CC(=O)O", "LC retention time": "0.8 min"}
{"COMPOUND": "NCC(O)CCC(N)C(=O)O (centres undefined) [5-HYDROXYLYSINE]", "LC retention time": "0.57 min"}
{"COMPOUND": "c1ccc(CNc2ccccc2)cc1", "LC retention time": "8.5 min"}
{"COMPOUND": "O=C(O)c1cc(O)cc(O)c1 [3-5-Dihydroxybenzoic acid]", "LC retention time": "3.57 min"}
{"COMPOUND": "COC(=O)CCC(=O)O [mono-Methyl hydrogen succinate]", "LC retention time": "3.97 min"}
{"COMPOUND": "O=c1c(-c2ccc(O)cc2)coc2cc(OC3OC(CO)C(O)C(O)C3O)ccc12 (centres undefined)", "LC retention time": "5.24 min"}
{"COMPOUND": "CN1C2CC(OC(=O)C(CO)c3ccccc3)CC1C1OC12 (single isomer, unassigned; (-)) [(-)-Scopolamine hydrochloride]", "LC retention time": "4.91 min"}
{"COMPOUND": "CC12CCC3C(CC=C4CC(O)CCC43C)C1CCC2=O (centres undefined) [3-b-Hydroxyandrost-5-en-17-one (Dehydroepiandrosterone)]", "LC retention time": "4.86 min"}
{"COMPOUND": "O=c1ccn(C2OC(CO)C(O)C2O)c(=O)[nH]1 (centres undefined)", "LC retention time": "0.82 min"}
